Each item that follows carries a reported pKd.
Target: RSV prefusion F (preF), DS-Cav1 (respiratory syncytial virus, UniProt P03420 26-513)
Experiment: BLI, IgG on sensor, 100 nM antigen
Value format note: pKd is -log10 of concentration (mol/L); just state the number.

Binder	pKd
ADI-41421 (antibody, V domains shown, IgG1) VH: QVQLVESAAEVKRPGASLKVSCKASGYTFIDYDISWVRQAPGQGLDWMGWISTYDGSAKYPENLQARVAMTTDTSTSTAYMELESLTSDDTAVYYCARARRGSSGWVSTTGPTPFFDYWGRGTLVTVSS VL: SYELTQPPSVSVSPGQTARITCSGDALPKRYAYWYQQKSGQAPVLVIYEDNKRPSGIPERFSGSSSGTVATLTISGAQVEDEADYSCYSTDATGNHRGLFGGGTKLTVL	8.60

--- query ---
Look up pKd for this binder: ADI-41447 (antibody, V domains shown, IgG1) VH: EVQLLESGGGLVQPGGSLRLSCAASGFTFSTYAMNWVRQAPGKGLEWVSTISGSGGSTYYGDSVKGRFTISRDNSKNTLYLQMNSLRAEDTAVYYCAKAPTPWCSGGSCYVSYWGQGTLVTVSS VL: DIVMTQTPGTLSLSPGERGTLSCRASQSVSSSYLAWYQQKPGQAPRLLIYGASSRATGIPDRFGGSGSGTDFTLTISTLEPEDFAVYYCQQYQSSPWTFGQGTKLEIK
7.27
